system: normal human lung fibroblast Wi-38 cell line; experiment: MTT cytotoxicity on normal cells; format: cell-based; conditions: Wi-38, 72 h, MTT, safe dose, 100% cell viability; mean ± SEM
What Wi-38 EC100 was measured for each of the following?
Respond numerically; units are µM and should not be typed.

Consider the molecule N#Cc1c(-c2cc3cc(Cl)ccc3nc2N2CCCCC2)cc(-c2cccc(O)c2)[nH]c1=O . State its measured Wi-38 EC100.
0.0234

Give a short answer stating reported Wi-38 EC100 for COc1ccc(NC(=O)COc2nc(-c3cccc(O)c3)cc(-c3cc4cc(Cl)ccc4nc3N3CCOCC3)c2C#N)cc1 [11f] .
0.0347

Give Wi-38 EC100 for COc1ccc2[nH]c(=O)c(-c3cc(-c4cccc(O)c4)nc(N)c3C#N)cc2c1 [15c]
0.101

Return value of Wi-38 EC100 for input COc1ccc2nc(N3CCOCC3)c(-c3cc(-c4cccc(O)c4)nc(OCC(=O)Nc4ccc(Cl)cc4)c3C#N)cc2c1 [11h] , no commentary.
0.0182

Provide only the value of recorded Wi-38 EC100 for N#Cc1c(-c2cc3cc(Cl)ccc3nc2N2CCOCC2)cc(-c2cccc(O)c2)nc1OCC(=O)O
0.134

Provide only the value of recorded Wi-38 EC100 for COc1ccc2[nH]c(=O)c(-c3cc(-c4cccc(O)c4)nc(S)c3C#N)cc2c1 [14c]
0.0972

Query Wi-38 EC100 for N#Cc1c(-c2cc3ccccc3nc2N2CCOCC2)cc(-c2cccc(O)c2)nc1OCC(=O)Nc1ccccc1 [11a]
0.0906

// Input: N#Cc1c(-c2cc3cc(Cl)ccc3nc2N2CCOCC2)cc(-c2cccc(O)c2)nc1OCC(=O)Nc1ccccc1 [11d] . Output its Wi-38 EC100 only.
0.0455

Supply measured Wi-38 EC100 of COc1ccc2nc(N3CCOCC3)c(-c3cc(-c4cccc(O)c4)nc(S)c3C#N)cc2c1 in your reply.
0.177

Provide only the value of recorded Wi-38 EC100 for N#Cc1c(-c2cc3ccccc3nc2N2CCOCC2)cc(-c2cccc(O)c2)nc1OCC(=O)Nc1ccc(Cl)cc1 [11b]
0.00232

Report measured Wi-38 EC100; entry is N#Cc1c(-c2cc3cc(Cl)ccc3nc2N2CCOCC2)cc(-c2cccc(O)c2)[nH]c1=O
0.048

Indicate its recorded Wi-38 EC100; the molecule in question is CC(=O)Oc1cccc(-c2cc(-c3cc4ccccc4nc3N3CCOCC3)c(C#N)c(=O)[nH]2)c1
0.102

Given the molecule N#Cc1c(-c2cc3ccccc3nc2N2CCCCC2)cc(-c2cccc(O)c2)[nH]c1=O , write its reported Wi-38 EC100.
0.0239

# return recorded Wi-38 EC100 for entry N#Cc1c(-c2cc3ccccc3[nH]c2=O)cc(-c2cccc(O)c2)nc1N [15a]
0.0663

Indicate its recorded Wi-38 EC100; the molecule in question is N#Cc1c(-c2cc3cc(Cl)ccc3[nH]c2=O)cc(-c2cccc(O)c2)nc1N [15b]
0.169

Could you please provide reported Wi-38 EC100 for COc1ccc2nc(N3CCOCC3)c(-c3cc(-c4cccc(O)c4)nc(OCC(=O)Nc4ccccc4)c3C#N)cc2c1 [11g] ? Thanks!
0.0450

Let me know recorded Wi-38 EC100 for N#Cc1c(-c2cc3ccccc3nc2N2CCOCC2)cc(-c2cccc(O)c2)[nH]c1=O , thanks.
0.0192

Annotate the molecule N#Cc1c(-c2cc3ccccc3[nH]c2=O)cc(-c2cccc(O)c2)nc1S [14a] with its measured Wi-38 EC100.
0.134

# return recorded Wi-38 EC100 for input COc1ccc2nc(N3CCCCC3)c(-c3cc(-c4cccc(O)c4)nc(S)c3C#N)cc2c1
0.0277

Give recorded Wi-38 EC100. N#Cc1c(-c2cc3cc(Cl)ccc3[nH]c2=O)cc(-c2cccc(O)c2)[nH]c1=O [13b]
0.017

Given the molecule N#Cc1c(-c2cc3cc(Cl)ccc3nc2N2CCOCC2)cc(-c2cccc(O)c2)nc1OCC(=O)Nc1ccc(Cl)cc1 [11e] , write its reported Wi-38 EC100.
0.0178

Specify measured Wi-38 EC100 for N#Cc1c(-c2cc3ccccc3nc2N2CCOCC2)cc(-c2cccc(O)c2)nc1S .
0.0785

Answer with the recorded Wi-38 EC100 for the molecule listed here: COc1ccc2nc(N3CCOCC3)c(-c3cc(-c4cccc(OC(C)=O)c4)[nH]c(=O)c3C#N)cc2c1
0.094

Read off the recorded Wi-38 EC100 for COc1ccc(NC(=O)COc2nc(-c3cccc(O)c3)cc(-c3cc4cc(OC)ccc4nc3N3CCOCC3)c2C#N)cc1 [11i]
0.148

Give the measured Wi-38 EC100 for COc1ccc2nc(N3CCOCC3)c(-c3cc(-c4cccc(O)c4)[nH]c(=O)c3C#N)cc2c1
0.361

Provide measured Wi-38 EC100 value, entry: N#Cc1c(-c2cc3ccccc3[nH]c2=O)cc(-c2cccc(O)c2)[nH]c1=O [13a]
0.0145

Consider the molecule N#Cc1c(-c2cc3cc(Cl)ccc3nc2N2CCOCC2)cc(-c2cccc(O)c2)nc1S . State its measured Wi-38 EC100.
0.0493

State its Wi-38 EC100 for this molecule: N#Cc1c(-c2cc3ccccc3nc2N2CCOCC2)cc(-c2cccc(O)c2)nc1OCC(=O)O
0.0254

Consider the molecule COc1ccc(NC(=O)COc2nc(-c3cccc(O)c3)cc(-c3cc4ccccc4nc3N3CCOCC3)c2C#N)cc1 [11c] and give its recorded Wi-38 EC100.
0.0483

Respond only with Wi-38 EC100 recorded for N#Cc1c(-c2cc3cc(Cl)ccc3[nH]c2=O)cc(-c2cccc(O)c2)nc1S [14b]
0.153

# return recorded Wi-38 EC100 for entry COc1ccc2[nH]c(=O)c(-c3cc(-c4cccc(O)c4)[nH]c(=O)c3C#N)cc2c1 [13c]
0.0242

Supply recorded Wi-38 EC100 for COc1ccc2nc(N3CCOCC3)c(-c3cc(-c4cccc(O)c4)nc(OCC(=O)O)c3C#N)cc2c1 here.
0.0754

Identify measured Wi-38 EC100 corresponding to COc1ccc2nc(N3CCCCC3)c(-c3cc(-c4cccc(O)c4)[nH]c(=O)c3C#N)cc2c1
0.0258

Name the recorded Wi-38 EC100 of the molecule listed here: CC(=O)Oc1cccc(-c2cc(-c3cc4cc(Cl)ccc4nc3N3CCOCC3)c(C#N)c(=O)[nH]2)c1
0.110

Tell me measured Wi-38 EC100 for N#Cc1c(-c2cc3ccccc3nc2N2CCCCC2)cc(-c2cccc(O)c2)nc1S please.
0.212
